- runDescription: Chemical stability in water (10 mM) at 60 °C by HPLC
- Assay type: physicochemical
- reportedConditions: storage at 60 °C, HPLC, 164 h
Items are presented alongside their recorded Chemical stability, 164 h.

Past entries and their recorded results:
Cl.N[C@@H](CCC(=O)NNC(=O)c1ccccc1O)C(=O)O :: 82.6%
Cl.N[C@@H](CCC(=O)NNC(=O)c1ccccc1)C(=O)O [RA-Benzo, N^5-benzamido-L-glutamine hydrochloride] :: 82.5%

input: Recorded Chemical stability, 164 h of CN(NC(=O)CC[C@H](N)C(=O)O)c1ccccc1 , please.
output: 80.3%

input: Queued: Cc1cccc(N(C)NC(=O)CC[C@H](N)C(=O)O)c1
output: 80.0%

---

- runDescription: Chemical stability in water (10 mM) at 60 °C by HPLC
- Format: physicochemical
- reportedConditions: storage at 60 °C, HPLC, 330 h
observable: Chemical stability, 330 h (%)
Give the number; % is assumed, so skip it.

Past entries and their recorded results:
Cl.N[C@@H](CCC(=O)NNC(=O)c1ccccc1)C(=O)O [RA-Benzo, N^5-benzamido-L-glutamine hydrochloride] :: 68.0
Cc1cccc(N(C)NC(=O)CC[C@H](N)C(=O)O)c1 [RA-Hyd-Me-Tol, N^5-(methyl(m-tolyl)amino)-L-glutamine] :: 63.4
Cl.N[C@@H](CCC(=O)NNC(=O)c1ccccc1O)C(=O)O [RA-Sali] :: 69.1

input: Recorded Chemical stability, 330 h of CN(NC(=O)CC[C@H](N)C(=O)O)c1ccccc1 [RA-Hyd-Me, N^5-(methyl(phenyl)amino)-L-glutamine] , please.
output: 65.4

---

- runDescription: Chemical stability in water (10 mM) at 60 °C by HPLC
- Type: physicochemical
- reportedConditions: storage at 60 °C, HPLC, 48 h
observable: Chemical stability, 48 h (%)
Give the number; % is assumed, so skip it.

N[C@@H](CCC(=O)NNc1ccccc1O)C(=O)O [Ramalin, reference compound] :: 17.1
Cl.N[C@@H](CCC(=O)NNC(=O)c1ccccc1)C(=O)O [RA-Benzo, N^5-benzamido-L-glutamine hydrochloride] :: 94.4
CN(NC(=O)CC[C@H](N)C(=O)O)c1ccccc1 :: 94.5
Cl.N[C@@H](CCC(=O)NNC(=O)c1ccccc1O)C(=O)O :: 96.7

input: Recorded Chemical stability, 48 h of Cc1cccc(N(C)NC(=O)CC[C@H](N)C(=O)O)c1 , please.
output: 94.6

---

- runDescription: Chemical stability in water (10 mM) at 60 °C by HPLC
- Format: physicochemical
- reportedConditions: storage at 60 °C, HPLC, 24 h
observable: Chemical stability, 24 h

Past entries and their recorded results:
CN(NC(=O)CC[C@H](N)C(=O)O)c1ccccc1 :: 97.5%
Cl.N[C@@H](CCC(=O)NNC(=O)c1ccccc1)C(=O)O [RA-Benzo, N^5-benzamido-L-glutamine hydrochloride] :: 97.2%
Cl.N[C@@H](CCC(=O)NNC(=O)c1ccccc1O)C(=O)O :: 99.6%

input: Recorded Chemical stability, 24 h of N[C@@H](CCC(=O)NNc1ccccc1O)C(=O)O [Ramalin, reference compound] , please.
output: 35.1% ^2

input: Queued: Cc1cccc(N(C)NC(=O)CC[C@H](N)C(=O)O)c1
output: 97.5%
